System: BT-549
experimental-protocol: NCI tumour cell line growth inhibition, 48 h
Active and inactive are the calls of the source. Cut-off read from the data, not from the text of the source: active = GI50 up to about 1.1 µM and inactive = higher.
readout-name: GI50

CC1=NN(c2ccccc2)C(=O)C1/N=N/c1ccc(S(N)(=O)=O)cc1 (centres undefined)    > 100 µM (inactive)
COc1ccc(-c2cc(-c3ccc(Nc4ccnc5cc(C(F)(F)F)ccc45)cc3)[nH]c(=O)c2C#N)cc1    > 52 µM (inactive)
N#CC(c1ccccc1)(c1ccccc1)[C@@H](c1ccccc1)[C@H](Cc1ccccc1)NS(=O)(=O)c1ccccc1    > 100 µM (inactive)
O=S(=O)(O)c1cc(O)c2c(O)c(/N=N/c3cccc4ccccc34)c(S(=O)(=O)O)cc2c1    > 100 µM (inactive)
CC(=O)NCCC1CNc2ccccc21 (centres undefined)    > 100 µM (inactive)

What GI50 value was documented for this compound, C=C1[C@H](OCC(C)C)[C@@H](OC(=O)C(C)CC)[C@@H](O)C(C)(C)/C=C/[C@H](C)C(=O)[C@@]2(O)C[C@H](C)[C@H](O)[C@@H]2[C@H]1OC(=O)C(C)CC (some centres undefined) ?
4.63 µM (inactive)

What GI50 value was documented for this compound, O=C(Cn1ccnc1[N+](=O)[O-])NCCO ?
> 100 µM (inactive)

What GI50 value was documented for this compound, CCOC(=O)C1C(c2ccc(OC)cc2)c2c(nn(-c3ccccc3)c2O)CC1(C)O (centres undefined) ?
0.0159 µM (active)

What GI50 value was documented for this compound, CO/N=C\c1cc(O)c(O)c(/C=N/OC)c1 ?
> 100 µM (inactive)

* * *

Test system: SN12C
experimental-protocol: NCI tumour cell line growth inhibition, 48 h
Active and inactive are the calls of the source. Cut-off read from the data, not from the text of the source: active = GI50 up to about 1.1 µM and inactive = higher.
readout-name: GI50

Check out these entries, answers already filled in.
CCOC(=O)C1=CNC(C(=O)OCC)C1c1cccn1-c1ccccc1 (stereo not given)    29.4 µM (inactive)
O=C1OC(c2ccccc2)(c2ccccc2)c2ccc3ccc(F)cc3c21    > 100 µM (inactive)
O=S(=O)(O)c1cc(O)c2c(O)c(/N=N/c3cccc4ccccc34)c(S(=O)(=O)O)cc2c1    > 100 µM (inactive)
O=C1Cc2c([nH]c3c(Cl)cccc23)-c2ccccc2N1    > 100 µM (inactive)

What GI50 value was documented for this compound, c1ccc(/N=C2\c3ccsc3/C(=N/c3ccccc3)c3ccsc32)cc1 ?
1.58 µM (inactive)

What GI50 value was documented for this compound, O=C(NCCCN1CCN(CCCNC(=O)Nc2cc(Cl)ccc2Cl)CC1)Nc1cc(Cl)ccc1Cl ?
83 µM (inactive)

What GI50 value was documented for this compound, COc1ccc(/C=C/C=C2C(=O)NC(=S)NC2=O)cc1 ?
7.35 µM (inactive)

What GI50 value was documented for this compound, Oc1cc(-c2cccc(OC(F)(F)F)c2)nc2cc3c(cc12)OCO3 ?
0.169 µM (active)

What GI50 value was documented for this compound, COc1cccc2c3cccc(OC)c3c3[nH]cnc3c12 ?
5.45 µM (inactive)

What GI50 value was documented for this compound, N#C/C(=C\c1ccc(F)cc1)c1nc(-c2cc3ccccc3oc2=O)cs1 ?
74 µM (inactive)

* * *

Tested on: MCF7
experimental-protocol: NCI tumour cell line growth inhibition, 48 h
The source made the active and inactive calls. No stated cut-off is given here; in the data, active = GI50 up to about 1.1 µM and inactive = higher.
Reported GI50 by item:

Cc1ccc(S(=O)(=O)NNC(=O)Nc2ccc([N+](=O)[O-])cc2)cc1    35.6 µM (inactive)
N[C@@H](Cc1ccccc1)C(=O)N1CCC[C@@H]1P(=O)(Oc1ccccc1)Oc1ccccc1    > 100 µM (inactive)
O=c1[nH]c2cc(F)c(F)cc2nc1Cc1ccccc1    > 100 µM (inactive)

API: the following record is the query input.
What GI50 value was documented for this compound, Nc1[nH]c(Nc2ccc(Cl)c(Cl)c2)nc2ncnc1-2 ?
14.6 µM (inactive)

These data points were gathered from ChEMBL document CHEMBL1201862.
